Provenance of the data: the kinase profiling compilation of Christmann-Franck et al. (2016)

experimentalTarget: UniProtKB P06241
Sequence (P06241 whole entry, looked up): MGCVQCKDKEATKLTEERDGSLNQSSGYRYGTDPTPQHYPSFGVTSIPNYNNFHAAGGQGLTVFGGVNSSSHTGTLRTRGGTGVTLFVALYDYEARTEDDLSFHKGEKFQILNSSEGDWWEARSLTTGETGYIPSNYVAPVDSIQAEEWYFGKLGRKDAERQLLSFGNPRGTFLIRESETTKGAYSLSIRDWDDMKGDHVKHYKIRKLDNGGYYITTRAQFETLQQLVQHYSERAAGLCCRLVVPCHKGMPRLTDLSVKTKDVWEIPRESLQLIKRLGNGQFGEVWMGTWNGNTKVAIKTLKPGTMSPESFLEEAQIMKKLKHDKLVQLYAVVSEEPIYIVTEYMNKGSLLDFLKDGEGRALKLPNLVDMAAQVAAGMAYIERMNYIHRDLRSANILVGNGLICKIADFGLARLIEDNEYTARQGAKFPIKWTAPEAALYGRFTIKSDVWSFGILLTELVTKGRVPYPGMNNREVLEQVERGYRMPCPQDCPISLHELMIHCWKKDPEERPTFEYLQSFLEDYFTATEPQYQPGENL
assayRemarks: KINOMEscan competition binding
conditionDetails: compound 10.0 µM
quantityMeasured: kinase still bound, per cent of control (%)

> print(dat)
                            substancesmiles  experimentaltarget  unitabbreviation  endpointresult
1  CCN1CCN(Cc2ccc(NC(=O)c3ccc(C)c(Oc4ccnc5[nH]ccc45)c3)cc2C(F)(F)F)CC1    UniProtKB P06241                 %             1.6
2  COc1cc(N2CCC(N3CCN(C)CC3)CC2)ccc1Nc1ncc(Cl)c(Nc2ccccc2S(=O)(=O)C(C)C)n1    UniProtKB P06241                 %             5.6
3  CCN1CCN(Cc2ccc(NC(=O)c3ccc(C)c(/C=C/c4cnc(Nc5cc(N6CCNCC6)nc(C)n5)cn4)c3)cc2C(F)(F)F)CC1    UniProtKB P06241                 %             4.6
4  CCOc1cc(N2CCC(N3CCCCC3)CC2)ccc1Nc1nc(Nc2ccccc2S(=O)(=O)C(C)C)c2cn[nH]c2n1    UniProtKB P06241                 %             100
